biological target: G-protein coupled receptor 183 (Homo sapiens) (UniProt P32249); assay: EBI2 receptor antagonists, beta-arrestin recruitment, primary screen, cell-based, luminescence, 7a,25-OHC stimulation, uHTS (AID 651636); details: 7a,25-OHC stimulated, at 5 µM;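 also: enzyme fragment complementation signal reports receptor beta-arrestin coupling in cells; 0% = agonist plus DMSO wells and 100% = wells without agonist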
Sequence (P32249 whole entry, looked up, the tested form may be a part): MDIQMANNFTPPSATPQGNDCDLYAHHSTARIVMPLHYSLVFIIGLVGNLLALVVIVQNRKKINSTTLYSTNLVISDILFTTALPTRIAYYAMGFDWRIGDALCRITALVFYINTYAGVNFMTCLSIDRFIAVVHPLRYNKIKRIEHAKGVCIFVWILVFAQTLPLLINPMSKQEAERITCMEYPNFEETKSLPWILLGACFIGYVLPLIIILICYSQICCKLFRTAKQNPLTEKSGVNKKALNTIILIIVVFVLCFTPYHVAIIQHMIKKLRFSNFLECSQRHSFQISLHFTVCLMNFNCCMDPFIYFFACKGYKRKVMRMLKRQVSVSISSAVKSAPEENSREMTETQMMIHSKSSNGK
Out of some 360,000 compounds screened, about 3,000 (0.83%) were called active. Rule as the data show it: active = inhibition above about 38%; inactive = the rest. The full list was thinned out, with actives kept by preference.
I would appreciate it if you answered using one of these outcomes: active, inactive

What did this assay record as the result for CCOc1ccc(CCN2C(=S)N([C@@H](CC(C)C)CN3CCC[C@@H]3CN3C(=S)NC[C@@H]3Cc3ccc(O)cc3)C[C@@H]2Cc2ccc(O)cc2)cc1 ?
active

Please indicate how the test categorized COCc1cc(C)n(CC(=O)NCC2CCCO2)c(=O)c1C#N (configuration not stated) .
inactive

Hi, sorry to bother you, what did the test record for CCOc1ccc(CCN2C(=O)C(=O)N([C@@H](CC(C)C)CN3CCC[C@H]3CN3C(=O)C(=O)NC[C@@H]3Cc3ccccc3)C[C@@H]2CC(C)C)cc1 ?
inactive

Look up the recorded call for CCOc1ccc(C(C)=O)cc1COC(=O)c1cnc(Cl)c(Cl)c1 in this test.
active

Hi, sorry to bother you, what did the test record for CCCNC(=O)C1(C)CCN(C(=O)c2ccc(F)cc2Cl)C1 (configuration not stated) ?
inactive

Recorded test outcome, item O=C(CN1CCN(c2ccc(Cl)cc2)CC1)c1ccccc1
inactive

Hi team, can someone confirm the assay call for COc1ccc(C(C#N)=C2C=CC(=NO)c3ccccc32)cc1 ?
inactive

* * *

Answer each item with its documented inhibition.
target: G-protein coupled receptor 183 (Homo sapiens) (UniProt P32249); assay: EBI2 receptor antagonists, beta-arrestin recruitment, primary screen, cell-based, luminescence, 7a,25-OHC stimulation, uHTS (AID 651636); conditions: 7a,25-OHC stimulated, at 5 µM, stronger effect = higher value
Hit rate of the full screen: of about 360,000 compounds, about 3,000 (0.83%) were called active. The list comes from a sample in which actives are over-represented; it also holds close analogues and randomly drawn compounds.
Numbers only, in %.

MOLECULE	TGT	inhibition (%)
CCc1nc2ccc(C(=O)N3CCN(c4cccc(Cl)c4)CC3)cc2nc1CC	G-protein coupled receptor 183 (Homo sapiens) (UniProt P32249)	-4.92
COc1cccc(NC(=O)CS(=O)(=O)c2cn(CC(=O)N3CCOCC3)c3ccccc23)c1	G-protein coupled receptor 183 (Homo sapiens) (UniProt P32249)	3.35
COc1cccc(NC(=O)CC2C(=O)NCCN2C(=S)Nc2ccc(F)cc2)c1 (configuration not stated)	G-protein coupled receptor 183 (Homo sapiens) (UniProt P32249)	9.02
COc1cccc(NC(=O)Cn2c3ccc(F)cc3c3nc4n(c(=O)c32)CCS4)c1	G-protein coupled receptor 183 (Homo sapiens) (UniProt P32249)	80.8
Cc1ccc2oc(=O)c3cnn(CC(=O)N(Cc4ccco4)C4CCCCC4)c3c2c1	G-protein coupled receptor 183 (Homo sapiens) (UniProt P32249)	86.2

Below is a list of molecules. For each, state its recorded inhibition.
1. CC(C)[C@H](NC(=O)c1ccc(F)cc1)C(=O)OCC(=O)NC(=O)c1cccn1C
2. COc1ccc(CN2C(=O)CN=C2Nc2ccc(C)cc2C)cc1
3. O=C(c1cc2cc(F)ccc2[nH]1)N1CCN(c2ccc(F)cc2)CC1
4. COCCCN(C(=O)Cn1ncc2c(=O)oc3ccc(C)cc3c21)C(C)c1ccncc1 (configuration not stated)
5. Cc1nc2ccc(C(=O)N3CCSCC3)cc2s1

[-1.33, -8.98, 71.3, -3.25, -12.2]

Hi! Can you tell me inhibition for each of these molecules?
1. CC1CCc2sc3nc(N4CCN(CCO)CC4)n4ncnc4c3c2C1 (configuration not stated)
2. COc1cccc(NC(=O)Cn2cnc3sc(C)c(S(=O)(=O)N4CCN(C)CC4)c3c2=O)c1

1. 61.6
2. -9.02

* * *

target: G-protein coupled receptor 183 (Homo sapiens); assay: EBI2 receptor antagonists, beta-arrestin recruitment, primary screen, cell-based, luminescence, 7a,25-OHC stimulation, uHTS (AID 651636); conditions: 7a,25-OHC stimulated, at 5 µM, stronger effect = higher value
Among all 360,000 compounds or so, about 3,000 (0.83%) were called active. This is one part of a sample in which actives are shown more often than they occur.
REPORTED ENDPOINT: inhibition (%)
Numbers only, in %.

MOLECULE	OBSERVED VALUE
O=S(=O)(NCCOc1cccc2cccnc12)c1ccc(F)cc1	0.785
CC1CN(C2CCN(C(=O)COc3ccccc3)CC2)CC(C)O1 (stereo not drawn)	-0.0245

Kindly consider the entry below.
Identify measured inhibition associated with Cc1ccc(NS(=O)(=O)c2ccc3c(c2)NC(=O)CO3)cc1
-3

* * *

target: G-protein coupled receptor 183 (Homo sapiens); assay: EBI2 receptor antagonists, beta-arrestin recruitment, primary screen, cell-based, luminescence, 7a,25-OHC stimulation, uHTS (AID 651636); settings: 7a,25-OHC stimulated, at 5 µM;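 also: enzyme fragment complementation signal reports receptor beta-arrestin coupling in cells; 0% = agonist plus DMSO wells and 100% = wells without agonist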
About 3,000 (0.83%) of roughly 360,000 compounds were called active. Cut-off read from the data, not from the text of the source: active = inhibition above about 38%; inactive = the rest. Shown is part of a subset that was picked to be rich in actives.
Your answer must be one of the following: active, inactive

Answered examples (7):
COMPOUND	LABEL CLASS
COc1ccc(/C=C/C(=O)NC(=S)N2CCCC(C(N)=O)C2)cc1 (stereo not drawn)	inactive
Cc1ccc2c(C)c(C(=O)N3CCN(c4ccncc4)CC3)oc2c1C	inactive
O=C(NNC(=S)Nc1ccc(F)cc1)[C@H]1C[C@@H]1c1ccccc1	inactive
COc1ccc(NC(=O)N2CCCC(C(=O)Nc3ccccc3OC)C2)cc1 (stereo not drawn)	inactive
COc1ccc(C(=O)/C=C/c2ccc(OC3CSC3)cc2)cc1	active
CC1CCN(S(=O)(=O)c2ccc3[nH]c(=O)ccc3c2)CC1	inactive
CN(C)S(=O)(=O)c1cccc(NC(=O)COc2ccc3ccccc3c2)c1	inactive

For the next question, use this compound.
Called result for COc1ccc(C(=O)NC2CCN(C(=O)Nc3ccc(F)cc3)CC2)cc1
inactive

* * *

biological target: G-protein coupled receptor 183 (Homo sapiens); assay: EBI2 receptor antagonists, beta-arrestin recruitment, primary screen, cell-based, luminescence, 7a,25-OHC stimulation, uHTS (AID 651636); details: 7a,25-OHC stimulated, at 5 µM;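 also: enzyme fragment complementation signal reports receptor beta-arrestin coupling in cells; 0% = agonist plus DMSO wells and 100% = wells without agonist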
Out of some 360,000 compounds screened, about 3,000 (0.83%) were called active. Rule as the data show it: active = inhibition above about 38%; inactive = the rest. Many of the other results were omitted from the sample, so actives are more common in it than they were.
The categories you may choose from are active, inactive

Below, 2 compounds whose answers are already recorded.
COMPOUND	LABEL CLASS
CC[C@@H]1Cc2cc(O)ccc2C2=C1c1ccc(O)cc1C[C@H]2CC	active
CCOC(=O)N1CCN(C(=O)COC(=O)c2cccc(S(C)(=O)=O)c2)CC1	inactive

Call for entry COc1ccc(CCNC(=O)CCn2c(=O)c3ccccc3n(CC(=O)NCC3CCCO3)c2=O)cc1OC (configuration not stated) :
inactive

Outcome logged for COc1cc(/C=C(\C#N)C(=O)Nc2ccc3ccccc3c2)c([N+](=O)[O-])cc1OC in this assay:
active

Which result was noted for this compound in the test: Cn1cc[n+](C)c1COc1ccc(C=O)cc1
inactive

Would you mind telling me which call this test gave CCN(CCCNC(=O)CSc1cc(=O)n(C)c2cc(Cl)ccc12)Cc1ccccc1 ?
inactive

Could you kindly confirm the outcome this assay logged for CCOC(=O)N1CCN(C(=O)COc2ccc(Cl)cc2C)CC1 ?
active

* * *

Provide the recorded inhibition for the entries that follow.
target: G-protein coupled receptor 183 (Homo sapiens); experiment: EBI2 receptor antagonists, beta-arrestin recruitment, primary screen, cell-based, luminescence, 7a,25-OHC stimulation, uHTS (AID 651636); details: 7a,25-OHC stimulated, at 5 µM, stronger effect = higher value;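 also: enzyme fragment complementation signal reports receptor beta-arrestin coupling in cells; 0% = agonist plus DMSO wells and 100% = wells without agonist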
About 3,000 (0.83%) of roughly 360,000 compounds were called active. What follows is part of a selection rich in actives, with near analogues and random picks from the rest.
Give bare numbers, in %.

COMPOUND	OBSERVED VALUE
Cc1cc(F)ccc1NC(=S)NCCc1ccccc1	1.81

List the reported inhibition of each compound below.
1. COc1cc2c(cc1OC)CC1(CCCCC1)N=C2
2. CC[C@]1(C(=O)OC)[C@H]2C(=O)N(Cc3ccccc3)C(=O)[C@H]2[C@H]2CN=C(SCc3ccc(Cl)cc3)N21
3. O=C(NCCNc1ccc([N+](=O)[O-])cc1Cl)c1ccccc1F
4. Cc1cccc(-c2nc(CS(=O)CC(=O)NC(C)CCc3ccccc3)c(C)o2)c1 (stereo not given)

1. 7.31
2. 19.5
3. -4.29
4. 0.721

Batch lookup, inhibition per entry.
1. CCCc1cc(=O)oc2cc(OCC(=O)Nc3ccc(CN4CCOCC4)cc3)c(Cl)cc12
2. CN(O)C(=S)c1ccccc1
3. COC(=O)c1ccc(/C=N/N2C(C)CCCC2C)cc1 (stereo not given)
4. Cc1cc(C)cc(Oc2nc3c(C)cccn3c(=O)c2/C=C(\C#N)C(=O)NC2CCS(=O)(=O)C2)c1 (stereo not given)
5. Cc1cs/c(=N\N=C\c2ccc(O)cc2)n1Cc1ccco1
6. CO/N=C(/CS(=O)(=O)c1ccc(Br)cc1)c1ccc(OC)cc1
7. CO[C@@H]1CN(C)C(=O)c2cc(NC(=O)C3CC3)ccc2OC[C@H](C)N(C(=O)CN2CCOCC2)C[C@@H]1C

1: -0.759; 2: 43; 3: -2.67; 4: 50.3; 5: 50.6; 6: 2.11; 7: -1.87

Answer for every listed entry: what is its inhibition? The entries follow.
1. Cc1ccc(-c2c(C)n([O-])c3c([n+]2=O)CCC3)cc1
2. O=C(/C=C/c1cn(-c2ccccc2)nc1-c1ccc2c(c1)OCCO2)NCCCN1CCOCC1
3. CC(CNc1ccc([N+](=O)[O-])cc1)NC(=O)c1ccccc1Br (stereo not given)

1: 0.406; 2: 3.63; 3: 28.5

src = PubChem BioAssay AID651636
